These data points were gathered from patent US7465748B2.

Listed next: entries and their corresponding EC50.
# Tested on: HSV-1 (strain KOS)
# EXPERIMENTAL PROTOCOL: Anti-HSV-1 activity assay (MTT, MRC-5 cells)
# Assay type: cell-based
# EXPERIMENTAL CONTEXT: Human alphaherpesvirus 1, MRC5, 120 h, HSV-1 strain KOS 50 TCID50/100 μl, 5 days culture, read-out: EC50 value (suppression of cellular death of MRC-5 cells via HSV-1 replication)
MEASURED ENDPOINT: EC50 (nM)

[
  {
    "MOLECULAR STRING": "O=C(CN(C(=O)C1CCS(=O)(=O)CC1)c1ccc2c(c1)CCC2)Nc1ccc(-c2cocn2)cc1",
    "VALUE MEASURED": 40
  },
  {
    "MOLECULAR STRING": "Cc1cccc(C)c1N(CC(=O)Nc1ccc(-c2ccccn2)cc1)C(=O)C1CCS(=O)(=O)CC1",
    "VALUE MEASURED": 28
  },
  {
    "MOLECULAR STRING": "Cc1cccc(C)c1N(CC(=O)Nc1ccc(-n2nccn2)cc1)C(=O)C1CCS(=O)(=O)CC1",
    "VALUE MEASURED": 42
  }
]
